Origin of values: ChEMBL document CHEMBL2069232

assay-procedure: Induction of methylselenol release in phenol-red free RPMI 1640 medium containing 100 uM DTNB
Assay type: physicochemical
observable: t1/2 (h)
Report the figure in h without appending any unit label.

Qu. Report t1/2 for C[Se]/C(=N/C(=O)c1cccnc1)NC(=O)c1cccnc1 please.
Ans. 2.9

Qu. Report t1/2 for CS/C(=N/C(=O)c1cccnc1Cl)NC(=O)c1cccnc1Cl please.
Ans. 31

Qu. Report t1/2 for C[Se]/C(=N/C(C)=O)NC(C)=O please.
Ans. 0.82

Qu. Report t1/2 for CS/C(=N/C(=O)c1cccnc1)NC(=O)c1cccnc1 please.
Ans. 24

Qu. Report t1/2 for C[Se]/C(=N/C(=O)c1cccnc1Cl)NC(=O)c1cccnc1Cl please.
Ans. 4.7

###

assay-procedure: Induction of methylselenol release in pH 8.0 phosphate buffer containing 100 mM Na2PO4, 1 mM EDTA and 100 uM DTNB
Type: physicochemical
observable: t1/2 (h)
Report the figure in h without appending any unit label.

Qu. Report t1/2 for C[Se]/C(=N/C(C)=O)NC(C)=O please.
Ans. 9.2

Qu. Report t1/2 for CS/C(=N/C(=O)c1cccnc1Cl)NC(=O)c1cccnc1Cl please.
Ans. 917

Qu. Report t1/2 for C[Se]/C(=N/C(=O)c1cccnc1Cl)NC(=O)c1cccnc1Cl please.
Ans. 40

Qu. Report t1/2 for CS/C(=N/C(=O)c1cccnc1)NC(=O)c1cccnc1 please.
Ans. 1333

Qu. Report t1/2 for C[Se]/C(=N/C(=O)c1cccnc1)NC(=O)c1cccnc1 please.
Ans. 26
